In this section we review reported Solubility in artificial gastric fluid, 24 h values for a set of compounds.
# method.summary: Solubility study in artificial gastric fluid (saturated solutions, HPLC linear equation; Pharmacopoeia and BCS classification)
# Assay type: physicochemical
# condition.label: artificial gastric fluid, saturated solution, standing 24 hours
Counter-ions that a name gives are not always drawn.
Report as a plain number; the unit mg/mL is understood.

These recorded examples may help you get a feel for the data.
compound	assay.result
C=CC(=O)Nc1cc(Nc2nccc(-c3cn(C)c4cccnc34)n2)c(OC)cc1N(C)CCN(C)C [mesylate salt]	379.12
C=CC(=O)Nc1cc(Nc2nccc(-c3cn(C)c4cccnc34)n2)c(OC)cc1N(C)CCN(C)C [citrate salt]	176.88
C=CC(=O)Nc1cc(Nc2nccc(-c3cn(C)c4cccnc34)n2)c(OC)cc1N(C)CCN(C)C [free base]	0.71
C=CC(=O)Nc1cc(Nc2nccc(-c3cn(C)c4cccnc34)n2)c(OC)cc1N(C)CCN(C)C [phosphate salt (amorphous)]	138.91
C=CC(=O)Nc1cc(Nc2nccc(-c3cn(C)c4cccnc34)n2)c(OC)cc1N(C)CCN(C)C [phosphate salt (crystal form C)]	147.08

**Query** Supply recorded Solubility in artificial gastric fluid, 24 h for C=CC(=O)Nc1cc(Nc2nccc(-c3cn(C)c4cccnc34)n2)c(OC)cc1N(C)CCN(C)C [p-toluenesulfonate salt] here.
**Result** 47.03

**Query** Supply recorded Solubility in artificial gastric fluid, 24 h for C=CC(=O)Nc1cc(Nc2nccc(-c3cn(C)c4cccnc34)n2)c(OC)cc1N(C)CCN(C)C [hydrochloride salt] here.
**Result** 70.03

Sourced from patent US10759797B2
